Source of measurements: ChEMBL document CHEMBL3612003

Biological target: ATP-dependent translocase ABCB1 (Homo sapiens)
Sequence (P08183 whole entry): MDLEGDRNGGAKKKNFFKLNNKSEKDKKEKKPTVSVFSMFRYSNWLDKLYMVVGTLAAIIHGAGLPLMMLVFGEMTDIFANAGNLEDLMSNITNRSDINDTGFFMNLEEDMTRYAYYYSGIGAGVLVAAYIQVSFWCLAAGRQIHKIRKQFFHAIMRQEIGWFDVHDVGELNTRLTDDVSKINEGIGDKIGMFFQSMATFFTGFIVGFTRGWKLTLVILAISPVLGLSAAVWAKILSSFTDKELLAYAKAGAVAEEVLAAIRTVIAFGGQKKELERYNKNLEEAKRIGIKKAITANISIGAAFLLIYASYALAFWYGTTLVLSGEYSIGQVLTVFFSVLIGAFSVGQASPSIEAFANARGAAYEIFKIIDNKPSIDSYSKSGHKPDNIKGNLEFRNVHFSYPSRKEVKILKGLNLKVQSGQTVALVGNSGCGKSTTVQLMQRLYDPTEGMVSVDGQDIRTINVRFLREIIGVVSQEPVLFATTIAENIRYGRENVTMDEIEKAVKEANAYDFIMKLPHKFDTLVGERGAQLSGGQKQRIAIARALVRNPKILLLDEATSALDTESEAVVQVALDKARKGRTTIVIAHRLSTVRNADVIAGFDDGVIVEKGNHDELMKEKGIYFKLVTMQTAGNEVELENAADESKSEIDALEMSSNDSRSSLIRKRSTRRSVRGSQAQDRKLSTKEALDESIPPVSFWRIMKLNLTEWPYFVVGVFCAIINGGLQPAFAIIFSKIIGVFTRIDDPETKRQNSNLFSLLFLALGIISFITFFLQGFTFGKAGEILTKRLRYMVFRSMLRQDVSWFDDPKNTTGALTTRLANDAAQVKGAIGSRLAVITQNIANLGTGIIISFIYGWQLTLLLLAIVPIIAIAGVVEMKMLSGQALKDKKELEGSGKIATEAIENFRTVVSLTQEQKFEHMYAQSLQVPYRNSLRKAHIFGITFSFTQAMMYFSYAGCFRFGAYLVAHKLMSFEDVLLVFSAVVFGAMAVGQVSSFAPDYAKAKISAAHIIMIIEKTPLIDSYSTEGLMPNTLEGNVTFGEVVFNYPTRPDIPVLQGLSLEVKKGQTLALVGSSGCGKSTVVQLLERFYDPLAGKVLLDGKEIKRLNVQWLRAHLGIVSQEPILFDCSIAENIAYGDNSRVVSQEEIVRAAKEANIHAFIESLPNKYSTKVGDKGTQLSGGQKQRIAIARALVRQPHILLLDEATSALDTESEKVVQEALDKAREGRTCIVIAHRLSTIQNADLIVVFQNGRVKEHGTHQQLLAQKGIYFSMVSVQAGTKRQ
Assay: Inhibition of P-glycoprotein in human drug-resistant K562/ADR cells assessed as reduction in P-gp mediated rhodamine 123 efflux by spectrofluorometry
QUANTITY_MEASURED: Ki (nM)
Quick reminder: number only, in nM, skip the unit.

1) CCN(CC)CCCn1c(=O)/c(=C/c2cc(OC)c(OC)c(OC)c2)s/c1=C1/C(=O)Nc2ccccc21 :: 730
2) CCN(CC)CCCn1c(=O)/c(=C/c2cc(OC)c(OC)c(OC)c2)s/c1=C1\C(=O)Nc2ccc(Cl)cc21 :: 220
3) CCN(CC)CCCn1c(=O)/c(=C/c2ccc(F)cc2F)s/c1=C1/C(=O)Nc2cc(F)ccc21 :: 1010
4) CCN(CC)CCCn1c(=O)/c(=C/c2cc(OC)c(OC)c(OC)c2)s/c1=C1\C(=O)Nc2ccc(C)cc21 :: 320

Consider the record given below.
Input: Reported Ki, compound CCN(CC)CCCn1c(=O)/c(=C/c2ccc(F)cc2F)s/c1=C1\C(=O)Nc2cc(F)ccc21 : ____
Output: 1010
